B1: PKD2L1 (parent)
chain: TLARCAKDILGFAVMFFIVFFAYA

Variants of: B1
Assay: protein stability index of a GFP-peptide fusion (GPS, HEK-293T) (PSI 1-6); higher = more stable;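 further: lentivirally expressed fusions sorted by FACS into six bins by GFP to DsRed ratio, PSI derived from sequencing read proportions per bin multiplied by bin number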
Details: c terminus: a fixed tail appended
observed property: protein stability index

sequence content	value observed
TLARCARDILGFAVMFFIVFFAYA [K7R]	2.29
TLARTAKDILGFAVMFFIVFFAYA [C5T]	4.06
TLARCAKDILGFAVFFFIVFFAYA [M15F]	2.54
TLARCAKDILGFAVMFFAVFFAYA [I18A]	2.54
TLARCAKDILGFAVMFFIVPFAYA [F20P]	3.48
TLARCAKDILGFAVMFFQVFFAYA [I18Q]	1.54
TLARCAKDPLGFAVMFFIVFFAYA [I9P]	1.93
TLARCAKDILGFAVMFFIVFFAYY [A24Y]	3.62
TLARCAKDILGFAVMFFIVFFKYA [A22K]	1.67
TLARCAKDILGFAVMLFIVFFAYA [F16L]	3.69
TLARCAKDILGFAVMGFIVFFAYA [F16G]	2.71
TLARCAKYILGFAVMFFIVFFAYA [D8Y]	2.7
TLARAAKDILGFAVMFFIVFFAYA [C5A]	2.49
WLARCAKDILGFAVMFFIVFFAYA [T1W]	1.62
TLARCAKDILGFANMFFIVFFAYA [V14N]	3.15
TLARSAKDILGFAVMFFIVFFAYA [C5S]	2.27
TLARCAKDILGFYVMFFIVFFAYA [A13Y]	2.65
TLAYCAKDILGFAVMFFIVFFAYA [R4Y]	3.28
TLARCAKDILGFAVMFFIVQFAYA [F20Q]	3.46
TLARCAKDKLGFAVMFFIVFFAYA [I9K]	1.22
TLARCAKDILGFAVMFFIVIFAYA [F20I]	2.7
TLARCAKDILGPAVMFFIVFFAYA [F12P]	2.87
TLARCAKDILGFAVMFFIYFFAYA [V19Y]	2.5
